target: human IL4Rα expressed on HEK293T-IL4Rα-STAT6-STAT6LUC-LB2 cells (human, UniProt P24394 26-825); test: cell-based or functional assay
Give Inhibition on IL4 induced STAT6 phosphorylation (IC50, nM) for every item shown.
Entry rule: numbers only, all in nM.

Enquiry: Suppose we examine the binder huB8G11F2B7G5E8-V4 (antibody, human IgG4 S228P, kappa, V domains shown, Humanized, human IgG4/kappa; also called huBSG11F2B7G5E8-V4) VH: EVQLVQSGAEVKKPGATVKISCKASGFNIKDTYMHWVKQAPGKGLEWMGRIDPTNGYTIYASKFQGKATITADTSSNTAYMELSSLRSEDTAVYHCVSRRPWFAYWGQGTLVTVSS VL: DIVMTQTPLSLSVTPGQPASISCRSSQSIVHSNGNTYLEWYLQKPGQSPQLLIYKVTNRFSGVPDRFSGSGSGTDFTLKISRVEAEDVGVYYCFQGSHVPYTFGQGTKLEIKR ; what Inhibition on IL4 induced STAT6 phosphorylation (IC50, nM) value has been reported?
Return: 0.3

Enquiry: Similarly, huC2C1A1A1-V14 (antibody, human IgG4 S228P, kappa, V domains shown, Humanized, human IgG4/kappa) VH: EVQLVESGGGLVQPGGSLRLSCAASGFTFSTYGMSWVRQAPGKGLVWVATINSNGGSTSYPDSVKGRFTISRDNAKNTLYLQMNSLRAEDTAVYYCARFFRFRNAMDYWGQGTLVTVSS VL: DIQMTQSPSSLSASVGQRVTITCRTSENIYSYLAWYQQKQGKPPRFLIYNAKTLAEGVPSRFSGSGSGTEFTLTITSLQAEDFGVYYCQHYYGPPTWTFGPGTKLEIKR ?
Return: 0.64

Enquiry: Similarly, huB8G11F2B7G5E8-V14 (antibody, human IgG4 S228P, kappa, V domains shown, Humanized, human IgG4/kappa; also called huBSG11F2B7G5E8-V14) VH: EVQLVQSGAEVKKPGATVKISCKVSGFNIKDTYMHWVKQAPGKGLEWMGRIDPTNGYTIYASKFQGKATITADTSSNTAYMELSSLRSEDTAVYHCVSRRPWFAYWGQGTLVTVSS VL: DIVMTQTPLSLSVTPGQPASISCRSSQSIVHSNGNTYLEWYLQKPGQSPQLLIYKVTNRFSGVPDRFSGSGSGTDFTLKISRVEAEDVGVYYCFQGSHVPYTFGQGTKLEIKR ?
Return: 0.26

Enquiry: Similarly, chimeric antibody C2C1A1A1 (antibody, human IgG4 S228P, kappa, V domains shown, Mouse variable domains on human IgG4/kappa; also called Chimeric C2C1A1A1; chC2C1A1A1) VH: EVQLVESGGGLVQPGGSLKLSCAASGFTFSTYGMSWVRQTPDKRLELVATINSNGGSTSYPDSVKGRFTISRDNAKNTLYLQMSSLKSEDTAMFYCARFFRFRNAMDYWGQGTSVTVSS VL: DIQMTQSPASLSASVGETVTITCRTSENIYSYLAWYQQKQGKSPQFLVYNAKTLAEGVPSRFSGSGSGTQFSLNINSLQSEDFGSYYCQHYYGPPTWTFGGGTKLEIKR ?
Return: 0.26

Enquiry: Similarly, huC2C1A1A1-V15 (antibody, human IgG4, V domains shown, Humanized, human IgG4/kappa) VH: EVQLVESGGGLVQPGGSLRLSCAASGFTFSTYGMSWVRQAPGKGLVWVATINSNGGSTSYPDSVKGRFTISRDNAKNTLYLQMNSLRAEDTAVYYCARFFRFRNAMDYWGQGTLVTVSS VL: DIQMTQSPSSLSASVGDRVTITCRTSENIYSYLAWYQQKPGKAPKFLVYNAKTLAEGVPSRFSGSGSGTDFTLTISSLQPEDFATYYCQHYYGPPTWTFGQGTKVEIKR ?
Return: 0.61

Enquiry: Similarly, chimeric antibody B8G11F2B7G5E8 (antibody, human IgG4 S228P, kappa, V domains shown, Mouse variable domains on human IgG4/kappa; also called Chimeric B8G11F2B7G5E8; chB8G11F2B7G5E8) VH: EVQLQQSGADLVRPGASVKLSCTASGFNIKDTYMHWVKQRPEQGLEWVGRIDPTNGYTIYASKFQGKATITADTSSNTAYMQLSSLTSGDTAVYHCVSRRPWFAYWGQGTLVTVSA VL: DILMTQTPLSLPVSLGAQASISCRSSQSIVHSNGNTYLEWYLQKPGQSPKLLIYKVTNRFSGVPDRFSGSGSGTDFTLKISRVEAEDLGIYYCFQGSHVPYTFGGGTKLEIKR ?
Return: 0.45

Enquiry: Similarly, huB8G11F2B7G5E8-V2 (antibody, human IgG4 S228P, kappa, V domains shown, Humanized, human IgG4/kappa; also called huBSG11F2B7G5E8-V2) VH: EVQLVQSGAEVKKPGATVKISCKVSGFNIKDTYMHWVKQAPGKGLEWVGRIDPTNGYTIYASKFQGKATITADTSSNTAYMELSSLRSEDTAVYHCVSRRPWFAYWGQGTLVTVSS VL: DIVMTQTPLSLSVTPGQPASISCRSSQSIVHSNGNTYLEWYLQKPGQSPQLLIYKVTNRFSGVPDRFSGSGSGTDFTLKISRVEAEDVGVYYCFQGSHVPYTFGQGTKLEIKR ?
Return: 0.4
